// reported Activity of AWAT2 (hDC4) towards various wax alcohols for each item listed
# SYSTEM: human AWAT2 (hDC4) (Homo sapiens)
# Construct: The full-length hDC4 was then sub cloned into the EcoRI site of the pRS423-GP vector; made in house; host or cells: Saccharomyces cerevisiae SCY2056 (dga1Δ lro1Δ are2), galactose-inducible pRS423-GP vector; microsomes used
# Sequence (Q6E213 whole entry): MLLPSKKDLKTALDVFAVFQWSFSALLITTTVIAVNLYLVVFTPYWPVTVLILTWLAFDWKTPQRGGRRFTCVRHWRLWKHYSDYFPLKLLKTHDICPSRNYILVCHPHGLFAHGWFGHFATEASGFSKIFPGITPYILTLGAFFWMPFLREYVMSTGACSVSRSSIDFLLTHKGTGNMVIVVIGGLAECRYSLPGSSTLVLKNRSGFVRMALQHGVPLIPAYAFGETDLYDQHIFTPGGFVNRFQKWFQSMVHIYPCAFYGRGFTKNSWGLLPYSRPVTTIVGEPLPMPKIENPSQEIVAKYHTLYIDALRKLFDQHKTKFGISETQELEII
# METHOD SUMMARY: In vitro AWAT substrate specificity assay, AWAT2 microsomes
# Assay type: biochemical
# STATED CONDITIONS: 10 μg microsomes; [14C]oleoyl-CoA as acyl donor; wax ester formed; vector control removed; mean +/- Std. dev., triplicate
ENDPOINT: Activity of AWAT2 (hDC4) towards various wax alcohols

{"columns": ["MOLECULE", "RESULT"],
 "data": [
  ["CCCCCC/C=C\\CCCCCCCCO [Palmitoleyl C-16:1]", "582 +/− 117 pmol/min/mg protein"],
  ["CCCCCCCC/C=C\\CCCCCCCCO [Oleyl C-18:1]", "892 +/− 106 pmol/min/mg protein"],
  ["CCCCCCCCCCCCCCCCCCO [Stearyl C-18]", "138 +/− 24 pmol/min/mg protein"],
  ["CCCCCCCCCCCCCCCCCCCCO [Arachidyl C-20, arachidyl alcohol]", "27 +/− 4 pmol/min/mg protein"],
  ["CCCCCCCCCCO [Decyl C-10, decyl alcohol]", "−50 +/− 277 pmol/min/mg protein"],
  ["CCCCCCCCCCCCCCCCO [Cetyl (Palmityl) C-16, cetyl alcohol]", "665 +/− 54 pmol/min/mg protein"]
]}
